# System: CCRIS mutagenicity, Ames/micronucleus/aberration tests
# assay_notes: CCRIS mutagenicity studies
# condition_details: Test System: UDS RAT HEPATOCYTES; Strain/Indicator: THY INCORP; Metabolic Activation: NONE; Method: AUTORADIOGRAPHY
# From the text: The CCRIS database contains chemical records with carcinogenicity, mutagenicity, tumor promotion, and tumor inhibition test results. It was developed by the National Cancer Institute (NCI). Data are derived from studies cited in primary journals, current awareness tools, NCI reports, and other sources. Test results have been reviewed by experts in carcinogenesis and mutagenesis. CCRIS provides historical information from the years 1985 - 2011. It is no longer updated. […]
Calls of active or inactive are those of the source. The rule behind the calls is not given here.
readout_type: mutagenic call

In [3]: df
Out[3]:
                                    molecule      recorded_value
 0  CCN(CC)c1ccc(N=Nc2ccc([N+](=O)[O-])cc2C#N)cc1  inactive; negative
 1                              COS(C)(=O)=O    active; positive
 2              OCC1=CCN2CC[C@@H](O)[C@@H]12  inactive; negative
 3                          CNc1nncc2ccccc12    active; positive
 4  CC(=O)O[C@]1(C)C(=O)OC/C2=C/CN(C)CC[C@@H](OC(=O)C3(C[C@H]1C)O[C@@H]3C)C2=O (stereo partly drawn)    active; positive
 5  O=P1(N(CCCl)CCCl)NCCCO1 (stereo not drawn)    active; positive
 6  C/C=C1/C[C@@H](C)[C@](C)(OC(C)=O)C(=O)OC/C2=C/CN(C)CC[C@@H](OC1=O)C2=O    active; positive
 7  C=CCOc1ccccc1OCC(O)CN(N=O)C(C)C (stereo not drawn)    active; positive
 8                                 ClC(Br)Br  inactive; negative
 9         Nc1ccc2c(c1)CN1C(=O)c3ccccc3C1=N2    active; positive
10          CCN(CC)CCNC(=O)c1cc(Cl)c(N)cc1OC  inactive; negative
11                             NCCc1cnc[nH]1  inactive; negative
12                c1cc2ccc3cccc4ccc(c1)c2c34  inactive; negative

###

# Test system: CCRIS mutagenicity, Ames/micronucleus/aberration tests
# assay_notes: CCRIS mutagenicity studies
# condition_details: Test System: AMES SALMONELLA TYPHIMURIUM; Strain/Indicator: TA102; Metabolic Activation: NONE; Method: STANDARD PLATE
Activity calls are given as the source filed them. How the calls were made is not given here.
Outcomes: TRUE = active, FALSE = inactive

smiles_structure	class_assignment
[Cl][Rh-2]([Cl])([Cl])([Cl])[Cl]	TRUE
CNC(=O)CSP(=S)(OC)OC	FALSE
Cc1ccc(N)cc1O	FALSE
[Ag][I]	TRUE
CC(=O)N1CCC[C@H]1C(=O)N(CC(=O)O)N=O	TRUE
COc1ccc2cc([C@H](C)C(=O)O)ccc2c1	FALSE
CC[C@@]1(O)C[C@H](O[C@H]2C[C@H](N(C)C)[C@H](O[C@H]3C[C@H](O)[C@H](O[C@H]4C[C@H](O)[C@H](O)[C@H](C)O4)[C@H](C)O3)[C@H](C)O2)c2c(cc3c(c2O)C(=O)c2c(O)ccc(O)c2C3=O)[C@H]1C(=O)OC	TRUE
Cc1ccc(C)c(C)c1C	FALSE
Fc1cccc(F)n1	FALSE
Clc1cccc(Cl)n1	FALSE
CCn1cc(C(=O)O)c(=O)c2ccc(C)nc21	TRUE
CN(C)P(=O)(N(C)C)N(C)C	FALSE

###

# System: CCRIS mutagenicity, Ames/micronucleus/aberration tests
# assay_notes: CCRIS mutagenicity studies
# condition_details: Test System: AMES SALMONELLA TYPHIMURIUM; Strain/Indicator: TA100; Metabolic Activation: NONE; Method: STANDARD PLATE
Calls of active or inactive are those of the source. How the calls were made is not given here.
Outcomes: 1 = active, 0 = inactive

molecule	class_assignment
Nc1cccc2cc3ccccc3cc12	0
CCC[C@]1(O)CC[C@H]2[C@@H]3CC[C@H]4CC(=O)C[C@H](C)[C@]4(C)[C@H]3CC[C@@]21C	0
CCC(=O)n1ncc(Cl)c(Cl)c1=O	0
CCCCCCCCCCCCS	0
CCOC(=O)c1cccc2cccnc12	0
CC1(C)CC(C(N)=O)C(C)(C)N1[O] (centres undefined)	0
CC(=O)N(CC(O)CN(C(C)=O)c1c(I)c(C(=O)NCC(O)CO)c(I)c(C(=O)NCC(O)CO)c1I)c1c(I)c(C(=O)NCC(O)CO)c(I)c(C(=O)NCC(O)CO)c1I (centres undefined)	0
O=C1NC(=O)C(C(Cl)Cl)=C1Cl	1
O=C(NCCCl)Sc1ncnc2nc[nH]c12	0
COP(=S)(OC)Oc1ccc(N)c(C)c1	0
COc1cccc2c1CC([N+](=O)[O-])c1ccc3c(c1-2)OCO3 (centres undefined)	1
CN(C)N=Nc1ccc(Cl)cc1	0
O=[N+]([O-])c1ccc(-c2nc3sccn3c2[N+](=O)[O-])cc1	1
Cc1ccc(C)c(C)c1C	0
CC(C)C[C@@H]1NC(=O)[C@H](C)N(C)C(=O)CNC(=O)/C(=C/c2ccccc2)N(C)C1=O	0
[Cl][Pt-2]([Cl])([Cl])([Cl])([Cl])[Cl]	1
c1ccc([C@@H]2CO2)cc1	1
CN(N=O)C(N)=O	1
Cc1cc(C)c2ccc3ccccc3c2c1	0
Nc1ccc(N=Nc2ccccc2)cc1	0
Cc1c(-c2ccccc2)oc2c(C(=O)OCCN3CCCCC3)cccc2c1=O	0
CC(=O)CC(C)(C)O	0
CCOCC(=O)O	0
CC1CO1 (centres undefined)	1
[Cl][Rh-2]([Cl])([Cl])([Cl])[Cl]	0
O=C(O)c1cc(Br)cc2cccnc12	0
O=C(/C=C/c1cccc([N+](=O)[O-])c1)c1ccccc1	0
O=C(ON(OCc1ccccc1)C(=O)c1ccccc1)c1ccc([N+](=O)[O-])cc1	1
CCCC(c1cc(C(C)(C)C)c(O)cc1C)c1cc(C(C)(C)C)c(O)cc1C	0
Nc1n[nH]c(=S)s1	0
COc1ccc(CNC(=O)C(C)Br)cc1OC (centres undefined)	1
O=C1c2ccccc2-c2cc([N+](=O)[O-])ccc21	0
CCCCC(CC)COC(=O)c1ccc(C(=O)O)cc1 (centres undefined)	0
O=C(CBr)Nc1ccccc1	0
Clc1ccc(CCC2CO2)cc1 (centres undefined)	1
CCC(CCC(C)=O)COC(=O)CCCCC(=O)O (centres undefined)	0
C=C(C)C(=O)OCCCCCOC(=O)C(=C)C	0
C[C@]12CCC=C(C=O)[C@@]1(C=O)C2	1
Cc1cccc2c1cc(C)c1c3c(ccc12)C(O)C(O)C1OC31 (centres undefined)	1
C[C@H]1C=C(C=O)[C@H](C=O)[C@@H](O)[C@@H]2CC(C)(C)C[C@@H]21	0
COc1ccc(C(=O)ON(OCc2ccccc2)C(=O)c2ccccc2)cc1	1
CC(C)[C@]12CC(=O)[C@H](C)[C@H]1C2	0
O=c1cc2ccc3cccc4ccc([nH]1)c2c34	0
c1ccc2c(OC[C@H]3CO3)cccc2c1	1
C[C@]12CC[C@@H](OC(=O)/C=C/c3cccc(N(CCCl)CCCl)c3)C[C@@H]1CC[C@@H]1[C@@H]2CC[C@]2(C)NC(=O)CC[C@@H]12	0
O.[Al+3].[Al+3].[Na+].[Na+].[O-2].[O-2].[O-2].[O-2].[O-2].[O-2].[Si+4]	0
Cn1cnc2c1c(=O)[nH]c(=O)n2C	0
CCCCCCCCCc1ccccc1Oc1ccccc1CCCCCCCCC	0
CNC(=O)N(C)C(=O)NO	0

###

# Test system: CCRIS mutagenicity, Ames/micronucleus/aberration tests
# assay_notes: CCRIS mutagenicity studies
# condition_details: Test System: AMES SALMONELLA TYPHIMURIUM; Strain/Indicator: TA100; Metabolic Activation: RAT LIVER S-9, AROCLOR 1254; Method: STANDARD PLATE
Calls of active or inactive are those of the source. No rule for the calls is given here.
Outcomes: 1 (yes) for active, 0 (no) for inactive

                                    compound  class_assignment
 0  CC(C)C[C@@H]1NC(=O)[C@H](C)N(C)C(=O)CNC(=O)/C(=C/c2ccccc2)N(C)C1=O            0 (no)
 1  COC1=CC(=O)c2c(ncc3c4c([nH]c23)CCCC4)C1=O           1 (yes)
 2                          Cc1ccc(C)c(C)c1C            0 (no)
 3                             CCc1ccc(C)cc1            0 (no)
 4                      Cn1c2ccccc2c2ccccc21           1 (yes)
 5    Cc1c([N+](=O)[O-])cc(C)c2c1c1ccccc1n2C           1 (yes)
 6        COc1cc(CNC(=O)CCCC/C=C/C(C)C)ccc1O            0 (no)
 7  O=C1OC(O)C(C(Cl)Cl)=C1Cl (stereo unspecified)            0 (no)
 8                             Cc1ccc(N)cc1O            0 (no)
 9  CC(=O)c1cc2c(cc1C)C(C)(C)C(C)C2(C)C (stereo unspecified)            0 (no)
10             CC(C)(c1ccc(O)cc1)c1ccc(O)cc1            0 (no)
11  O=C1C[C@H](O)[C@@H]2c3c(ccc(O)c31)-c1ccc(O)c3c1[C@@]2(O)CCC3=O            0 (no)
12         CC(C)[C@]12CC(=O)[C@H](C)[C@H]1C2            0 (no)
13         CC1(C)[C@@H]2CC[C@@]1(C)C(=O)C2=O            0 (no)
14             Cc1ccc2[nH]c3c(C)ccc(C)c3c2c1            0 (no)
15                                COC(C)(C)C            0 (no)
